We begin with a simple list: items and their reported pKd.
- study.target: HuR (ITC, SUMO tag removed) (UniProt Q15717 1-326)
- Sequence (Q15717 whole entry): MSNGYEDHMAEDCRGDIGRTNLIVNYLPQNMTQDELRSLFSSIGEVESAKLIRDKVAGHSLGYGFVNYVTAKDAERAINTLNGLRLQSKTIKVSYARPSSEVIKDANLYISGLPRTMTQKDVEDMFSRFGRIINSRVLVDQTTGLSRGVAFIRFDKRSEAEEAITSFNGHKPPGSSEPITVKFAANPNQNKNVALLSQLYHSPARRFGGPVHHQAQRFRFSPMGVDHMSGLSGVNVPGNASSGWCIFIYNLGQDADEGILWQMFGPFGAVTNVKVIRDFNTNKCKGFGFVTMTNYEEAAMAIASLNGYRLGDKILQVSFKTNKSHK
- experimental.details: ITC; ITC: 10 mM Tris pH 8.0, 100 mM NaCl, 25 C; UV-crosslinking EMSA: 50 mM Tris pH 7.0, 150 mM NaCl, 0.25 mg/ml tRNA, 0.025 mg/ml BSA, 25 C; pull-down: 1 ug RNA, 100 ug cytoplasmic extract, room temperature, 30 min
- cond: protein: recombinant; tags: N-terminal 6xHis-SUMO removed by Ulp1
pKd: −log10 of the molar value.
assay.metric: pKd

{"binder": "GUUUUUCUCG (ssRNA) [TERC 98-107 oligo (GUUUUUC motif)]", "assay.metric": "pKd", "observed.value": "~7.15"}
{"binder": "AUUUUUUGUCU (ssRNA) [TERC 37-47 oligo (UUUUUU motif)]", "assay.metric": "pKd", "observed.value": "~7.61"}

Measured values drawn from paper PMC5992219 for this set.
